cond: % Viability non-Wnt responsive cells
Where a SMILES comes first, the peptide text is derived from it.
measurement_label: viability (%)
Give bare numbers, in %.

CC[C@H](C)[C@H](NC(=O)[C@H](CC(C)C)NC(=O)[C@H](Cc1ccccc1)NC(=O)[C@H](Cc1c[nH]c2ccccc12)NC(=O)[C@H](CCSC)NC(=O)[C@H](CCCNC(=N)N)NC(=O)[C@H](CO)NC(=O)[C@@H](N)Cc1ccccc1)C(=O)N[C@@H](CO)C(=O)N[C@@H](Cc1ccccc1)C(=O)N[C@@H](Cc1c[nH]c2ccccc12)C(N)=O [compound 81] (H-FSRMWFLISFW-NH2) = 90.7
CC[C@H](C)[C@H](NC(=O)[C@H](CC(C)C)NC(=O)[C@H](Cc1ccccc1)NC(=O)[C@H](Cc1c[nH]c2ccccc12)NC(=O)[C@H](CCSC)NC(=O)[C@H](CCCNC(=N)N)NC(=O)[C@H](CO)NC(=O)[C@@H](N)CCSC)C(=O)N[C@@H](CO)C(=O)N[C@@H](CO)C(=O)N[C@@H](Cc1c[nH]c2ccccc12)C(=O)NCC(=O)O [compound 54] (H-MSRMWFLISSWG-OH) = 98.3
CC[C@H](C)[C@H](NC(=O)[C@H](CC(C)C)NC(=O)[C@H](Cc1ccccc1)NC(=O)[C@@H](N)Cc1c[nH]c2ccccc12)C(=O)N[C@@H](CO)C(=O)N[C@@H](Cc1ccccc1)C(=O)N[C@@H](Cc1c[nH]c2ccccc12)C(=O)O [compound 110] (H-WFLISFW-OH) = 103
CC[C@H](C)[C@H](NC(=O)[C@H](Cc1c[nH]c2ccccc12)NC(=O)[C@@H](N)CCSC)C(=O)NC(C)(CC(C)C)C(=O)N[C@H](C(=O)N[C@@H](CO)C(=O)N[C@@H](Cc1ccccc1)C(=O)N[C@@H](Cc1c[nH]c2ccccc12)C(=O)NCC(=O)O)[C@@H](C)CC (stereo partly drawn) [compound 138] (HELM PEPTIDE1{M.W.I.[CC(C)CC(C)(N[*:1])C(=O)[*:2]].I.S.F.W.G}$$$$V2.0) = 106
CSCC[C@H](NC(=O)[C@H](CCCNC(=N)N)NC(=O)[C@H](CO)NC(=O)[C@@H](N)CCSC)C(=O)N[C@@H](Cc1c[nH]c2ccccc12)C(=O)N[C@@H](Cc1ccccc1)C(=O)N[C@@H](CC(C)C)C(=O)N[C@@H](CC(N)=O)C(=O)N[C@@H](CO)C(=O)N[C@@H](Cc1ccccc1)C(=O)N[C@@H](Cc1c[nH]c2ccccc12)C(=O)NCC(=O)O [compound 70] (H-MSRMWFLNSFWG-OH) = 98.5

INPUT: Field request: viability | item: CC[C@H](C)[C@@H]1NC(=O)[C@H](CC(C)C)NC(=O)[C@H](Cc2ccccc2)NC(=O)[C@H](Cc2c[nH]c3ccccc23)NC(=O)[C@H](CCSC)NC(=O)CCCNC(=O)C[C@@H](C(=O)O)NC(=O)[C@H](Cc2c[nH]c3ccccc23)NC(=O)[C@H](Cc2ccccc2)NC(=O)[C@H](CS)NC1=O [compound 147] (HELM PEPTIDE1{[O=C(CCCN[*:1])[*:2]].M.W.F.L.I.C.F.W.D}$PEPTIDE1,PEPTIDE1,1:R1-10:R3$$$V2.0)
OUTPUT: 105

###

target_under_test: β-catenin (Homo sapiens)
Sequence (P35222 1-781): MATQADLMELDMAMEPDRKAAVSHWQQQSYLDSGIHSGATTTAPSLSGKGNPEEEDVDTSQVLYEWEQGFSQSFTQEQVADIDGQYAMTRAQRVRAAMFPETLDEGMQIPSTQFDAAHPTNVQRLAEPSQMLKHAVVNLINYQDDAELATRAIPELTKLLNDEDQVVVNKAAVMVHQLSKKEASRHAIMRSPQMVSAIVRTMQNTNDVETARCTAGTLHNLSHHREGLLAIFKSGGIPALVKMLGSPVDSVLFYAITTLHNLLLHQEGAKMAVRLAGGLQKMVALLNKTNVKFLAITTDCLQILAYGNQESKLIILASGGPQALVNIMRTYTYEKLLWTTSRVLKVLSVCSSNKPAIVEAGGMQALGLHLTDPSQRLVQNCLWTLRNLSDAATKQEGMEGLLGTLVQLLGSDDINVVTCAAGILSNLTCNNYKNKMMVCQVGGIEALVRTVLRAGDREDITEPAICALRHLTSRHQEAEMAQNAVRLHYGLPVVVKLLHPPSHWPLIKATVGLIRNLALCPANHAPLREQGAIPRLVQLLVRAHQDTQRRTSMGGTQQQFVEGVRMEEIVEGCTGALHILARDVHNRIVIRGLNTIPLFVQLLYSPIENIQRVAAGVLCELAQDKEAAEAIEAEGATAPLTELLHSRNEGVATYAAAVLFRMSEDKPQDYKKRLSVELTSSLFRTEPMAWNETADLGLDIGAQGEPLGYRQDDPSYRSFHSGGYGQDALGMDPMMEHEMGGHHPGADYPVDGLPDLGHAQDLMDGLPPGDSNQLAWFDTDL
experiment_description: KD50 measurement using competitive fluorescence polarization (FP) with labelled TCF4
Type: binding
cond: fluorescence polarization, β-catenin; read-out: β-Cat FP KD
Where a SMILES comes first, the peptide text is derived from it.
measurement_label: Kd

# annotated cases, reported Kd shown
CC[C@H](C)[C@H](NC(=O)[C@H](CC(C)C)NC(=O)[C@H](Cc1ccccc1)NC(=O)[C@H](Cc1c[nH]c2ccccc12)NC(=O)[C@@H](N)CCSC)C(=O)N[C@@H](CO)C(=O)N[C@@H](Cc1ccccc1)C(=O)N[C@@H](Cc1c[nH]c2ccccc12)C(=O)NCC(=O)O [compound 17] (H-MWFLISFWG-OH) = 0.4 to 1 µM
CC[C@H](C)[C@@H]1NC(=O)[C@H](CC(C)C)NC(=O)[C@H](Cc2ccccc2)NC(=O)[C@H](Cc2c[nH]c3ccccc23)NC(=O)[C@H](CCSC)NC(=O)[C@@H](NC(C)=O)CCCCNC(=O)CC[C@@H](C(=O)O)NC(=O)[C@H](Cc2c[nH]c3ccccc23)NC(=O)[C@H](Cc2ccccc2)NC(=O)[C@H](CS)NC1=O [compound 186] (HELM PEPTIDE1{[ac].K.M.W.F.L.I.C.F.W.E}$PEPTIDE1,PEPTIDE1,2:R3-11:R3$$$V2.0) = 0.4 to 1 µM

We next turn to a different compound, shown below.
INPUT: Field request: Kd | item: CC[C@H](C)[C@H](NC(=O)[C@H](CC(C)C)NC(C)=O)C(=O)N[C@@H](CO)C(=O)N[C@@H](Cc1ccccc1)C(=O)N[C@@H](Cc1c[nH]c2ccccc12)C(=O)NCC(=O)O [compound 238] (Ac-LISFWG-OH)
OUTPUT: 10 to 30 µM

###

target_under_test: β-catenin (Homo sapiens, UniProt P35222)
Sequence (P35222 1-781): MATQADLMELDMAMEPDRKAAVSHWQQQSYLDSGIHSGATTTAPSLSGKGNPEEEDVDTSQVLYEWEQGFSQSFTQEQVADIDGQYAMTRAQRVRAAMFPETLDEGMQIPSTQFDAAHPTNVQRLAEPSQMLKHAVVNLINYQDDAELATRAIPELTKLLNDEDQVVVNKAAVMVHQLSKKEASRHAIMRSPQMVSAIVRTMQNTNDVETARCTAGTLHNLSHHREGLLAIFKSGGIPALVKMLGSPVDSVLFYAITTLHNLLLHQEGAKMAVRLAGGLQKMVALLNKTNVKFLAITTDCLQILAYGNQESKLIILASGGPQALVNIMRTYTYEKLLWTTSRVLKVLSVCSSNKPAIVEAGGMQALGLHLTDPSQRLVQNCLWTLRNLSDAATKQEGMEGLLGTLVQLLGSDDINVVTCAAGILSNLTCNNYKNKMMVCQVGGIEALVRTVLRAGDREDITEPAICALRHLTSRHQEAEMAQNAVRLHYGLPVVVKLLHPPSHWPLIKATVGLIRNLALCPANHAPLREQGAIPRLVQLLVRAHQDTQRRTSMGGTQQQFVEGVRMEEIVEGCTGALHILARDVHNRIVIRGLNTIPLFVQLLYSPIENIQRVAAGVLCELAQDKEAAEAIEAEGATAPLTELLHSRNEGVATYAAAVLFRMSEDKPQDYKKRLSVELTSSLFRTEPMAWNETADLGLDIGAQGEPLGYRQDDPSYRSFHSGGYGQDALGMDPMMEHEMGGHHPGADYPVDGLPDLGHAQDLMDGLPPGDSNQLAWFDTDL
experiment_description: KD50 measurement using competitive fluorescence polarization (FP) with labelled TCF4
Type: binding
cond: fluorescence polarization, β-catenin; read-out: β-Cat FP KD
Where a SMILES comes first, the peptide text is derived from it.
measurement_label: Kd

# annotated cases, reported Kd shown
CC[C@H](C)[C@@H]1NC(=O)[C@H](CC(C)C)NC(=O)[C@H](Cc2ccccc2)NC(=O)[C@H](Cc2c[nH]c3ccccc23)NC(=O)[C@@H](NC(C)=O)CCCCNC(=O)CC[C@@H](C(=O)O)NC(=O)[C@H](Cc2c[nH]c3ccccc23)NC(=O)[C@H](Cc2ccccc2)NC(=O)[C@H](C)NC1=O [compound 200] (HELM PEPTIDE1{[ac].K.W.F.L.I.A.F.W.E}$PEPTIDE1,PEPTIDE1,2:R3-10:R3$$$V2.0) = 1 to 10 µM
CC[C@H](C)[C@@H]1NC(=O)[C@H](CC(C)C)NC(=O)[C@H](Cc2ccc(O)cc2)NC(=O)[C@H](Cc2c[nH]c3ccccc23)NC(=O)[C@H](CCSC)NC(=O)[C@H](CCCNC(=N)N)NC(=O)[C@H](CO)NC(=O)[C@@H](N)CCCCNC(=O)[C@H](Cc2c[nH]c3ccccc23)NC(=O)[C@H](Cc2ccccc2)NC(=O)[C@H](CO)NC1=O [compound 32] (HELM PEPTIDE1{K.S.R.M.W.Y.L.I.S.F.W}$PEPTIDE1,PEPTIDE1,1:R3-11:R2$$$V2.0) = > 30 µM

INPUT: Field request: Kd | item: CC[C@H](C)[C@H](NC(=O)[C@H](CC(C)C)NC(=O)[C@H](Cc1ccccc1)NC(=O)[C@H](C)N(C)C(=O)[C@H](CCSC)NC(=O)[C@H](CCCNC(=N)N)NC(=O)[C@H](CO)NC(=O)[C@@H](N)CCSC)C(=O)N[C@@H](CO)C(=O)N[C@@H](Cc1ccccc1)C(=O)N[C@@H](Cc1c[nH]c2ccccc12)C(=O)NCC(=O)O [compound 50] (HELM PEPTIDE1{M.S.R.M.[meA].F.L.I.S.F.W.G}$$$$V2.0)
OUTPUT: 1 to 10 µM

Origin of measurements: patent US12441768B2
